experimental system: T1, PSMA (Homo sapiens, UniProt Q04609)
T1 construct: purified extracellular domain of PSMA [residues 44-750; purchased from Caltech Protein Expression Center, CA]; purchased Caltech Protein Expression Center, CA
T1 sequence (Q04609 44-750): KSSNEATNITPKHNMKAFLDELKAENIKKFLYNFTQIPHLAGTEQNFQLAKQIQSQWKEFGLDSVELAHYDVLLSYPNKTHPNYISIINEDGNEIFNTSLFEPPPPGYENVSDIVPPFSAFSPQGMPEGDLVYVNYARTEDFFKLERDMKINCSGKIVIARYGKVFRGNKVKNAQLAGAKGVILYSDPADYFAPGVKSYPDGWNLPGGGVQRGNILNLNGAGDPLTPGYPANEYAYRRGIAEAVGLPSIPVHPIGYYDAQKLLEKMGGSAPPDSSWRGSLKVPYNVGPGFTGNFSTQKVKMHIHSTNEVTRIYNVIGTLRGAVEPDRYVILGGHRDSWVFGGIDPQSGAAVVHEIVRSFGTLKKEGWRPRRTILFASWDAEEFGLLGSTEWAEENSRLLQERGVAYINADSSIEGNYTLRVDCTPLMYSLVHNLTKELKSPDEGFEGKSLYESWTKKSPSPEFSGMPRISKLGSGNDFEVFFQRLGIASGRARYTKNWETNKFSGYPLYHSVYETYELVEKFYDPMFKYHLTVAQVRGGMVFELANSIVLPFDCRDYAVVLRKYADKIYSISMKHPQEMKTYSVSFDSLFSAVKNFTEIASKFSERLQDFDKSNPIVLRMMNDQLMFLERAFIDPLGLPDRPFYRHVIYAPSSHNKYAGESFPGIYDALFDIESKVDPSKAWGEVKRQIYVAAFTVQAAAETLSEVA
procedure summary: Surface plasmon resonance binding assay
test settings: SPR, immobilized NB, 1:1 Langmuir model, 25° C., means ± SD
recorded metric: Kon (M⁻¹ s⁻¹)

- NB7: anti-PSMA camel nanobody (VHH, ~16 kDa) selected by phage display; PDB 6XXN (protein) VHH: QVQLQESGGGSVQAGGSLRLSCTAPGYTDSNYYMSWFRQAPGKEREWVAGVNTGRGSTSYADSVKGRFTISQDNAKNTMFLQMNSLKPEDTAIYYCAVAACHFCDSLPKTQDEYILWGQGTQVTVSSAAAYPYDVPDYGS: 710000
- NB37: anti-PSMA camel nanobody (VHH, ~16 kDa) selected by phage display; PDB 6XXP (protein) VHH: QVQLQESGGGSVEAGGSLRLSCARSGWPYSTYSMNWFRQAPGKEREAVAGISSTMSGIIFAESKAGQFTISQDNAKNTVYLQMNNLKPEDTAIYYCAARRDYSLSSSSDDFDYWGQGTQVTVSSAAAYPYDVPDYGS: 22000
- NB13: anti-PSMA camel nanobody (VHH, ~16 kDa) selected by phage display (protein) VHH: QVQLQESGGGSVQTGGSLRLSCAASGYTASFSWIGYFRQAPGKEREGVAVINVGVGSTYYADSVKGRFTISRDNTENTISLEMNSLKPEDTGLYYCAGSLRWSRPPNPISEDAYNYWGQGTQVTVSSAAAYPYDVPDYGS: 36000
